Test system: Zika virus NS2B-NS3 protease (linked)
Assay: 384 well plate NINDS AMC confirmatory qHTS for Zika virus inhibitors (AID 1347163); note: potency is the fitted concentration of half-maximal effect; nearly all actives have a fitted effect of over 50% in size
Details: Recombinant NS2B-NS3 protease, Ac-VKTGKR-AMC fluorescence; series mostly up to 100 µM
Results filed as inconclusive are left out. Calls of active or inactive are those of the source. Calls come from the whole dose curve; as a rule, active = well fitted inhibition curve with a large enough effect; inconclusive = small, poorly fitted or top-dose-only effect; inactive = no such curve, though single readings can be large or run the other way.
measured parameter: Potency

Past entries and their recorded results:
compound	assayed system	Potency
CC(C)(C)Sc1c(CC(C)(C)C(=O)O)n(Cc2ccc(Cl)cc2)c2ccc(OCc3ccc4ccccc4n3)cc12	Zika virus NS2B-NS3 protease (linked)	14.1 µM (active)
Cc1noc(-c2ccc(-c3ccc(CC(=O)O)cc3)cc2)c1NC(=O)O[C@H](C)c1ccccc1Cl	Zika virus NS2B-NS3 protease (linked)	20 µM (active)
O=C(O)c1ccc(N2C(=O)/C(=C/c3ccc(-c4ccc([N+](=O)[O-])cc4)o3)C=C2c2ccccc2)cc1	Zika virus NS2B-NS3 protease (linked)	22.4 µM (active)

Now for another entry.
Under Zika virus NS2B-NS3 protease (linked): report Potency of CC(O)(C(=O)O)C1CCC2(C)C1CCC1(C)C2CCC2C3(C)CCC(O)C(C)(COC4OC(CO)C(O)C(O)C4O)C3CCC21C (centres undefined) .
39.8 µM (active)

----------
Test system: KB-3-1
Test: Cytotoxic Profiling of Annotated Libraries Using Quantitative High-Throughput Screening (AID 1296008); note: nearly all actives have a fitted effect of over 60% in size
Details: Five cell lines viability, CellTiter-Glo ATP luminescence, 48-72 h
Results filed as inconclusive are left out. The source made the active and inactive calls. The call rests on the fitted dose curve; in most records, active means well fitted inhibition curve with a large enough effect; inconclusive means small, poorly fitted or top-dose-only effect; inactive means flat fitted curve, though single readings scatter.
Parameter call: string, one of Y (active), N (inactive)

# count of solved cases: 5
molecule	discrete label
O=C(CSc1nc2ccccc2c(=O)n1-c1ccccc1)Nc1ccc2c(c1)CCC2	N
O=C(c1cc(Cc2n[nH]c(=O)c3ccccc23)ccc1F)N1CCCNCC1	N
CC(=O)c1c(C)cc2cccc(O)c2c1O[C@@H]1O[C@H](CO)[C@@H](O)[C@H](O)[C@H]1O	N
CC(NC(=O)Cc1cc(F)cc(F)c1)C(=O)NC1C(=O)N(C)c2ccccc2-c2ccccc21 (centres undefined)	Y
c1cc(NC2CCNCC2)nc(-c2cnc3ccccn23)c1	Y

Any idea what this test logged for CC/C(C)=C/C(=O)OC1C(OC2(C)CCC3C(C4C(C)CCC42)C3(C)C)OC(C)C(O)C1O (centres undefined) ?
N

Any idea what this test logged for CN1CCN(c2ccc(-c3cccc(CN4CCOCC4)c3)cc2NC(=O)c2c[nH]c(=O)cc2C(F)(F)F)CC1 ?
N

Any idea what this test logged for O=C(Cc1c(F)cccc1F)Nc1cc(OCc2ccc(Cl)cc2)ccn1 ?
N

Any idea what this test logged for CC1(C)CCC2(C(=O)OC3OC(COC4OC(CO)C(O)C(O)C4O)C(O)C(O)C3O)CCC3(C)C(=CCC4C5(C)CCC(OC6OCC(O)C(O)C6O)C(C)(C)C5CCC43C)C2C1O (centres undefined) ?
N

----------
Assay: P-glycoprotein substrates identified in KB-8-5-11 adenocarcinoma cell line, qHTS therapeutic library screen (AID 1346987); note: nearly all actives have a fitted effect of over 65% in size
Settings: KB-8-5-11 (P-gp overexpressing) viability, CellTiter-Glo, 72 h; series mostly up to 44.5 µM
Records with an inconclusive call do not appear. Active and inactive are the calls of the source. The call rests on the fitted dose curve; in most records, active means well fitted inhibition curve with a large enough effect; inconclusive means small, poorly fitted or top-dose-only effect; inactive means flat fitted curve, though single readings scatter.
Parameter call: string, one of 1 (yes) = active, 0 (no) = inactive

# count of solved cases: 4
molecule	discrete label
Cn1ccc(NC(=O)c2cc(Oc3ccc(C(=O)N4CCC4)c(F)c3)c3c(c2)OC(C)(C)C3)n1	0 (no)
CN1CCN(c2ccc(OC(F)(F)F)c(Nc3ncc4c(n3)-c3c(c(C(N)=O)nn3CCO)CC4)c2)CC1	1 (yes)
C=C1CCC2[C@](C)(CCC[C@@]2(C)C=O)[C@H]1CC/C(C)=C/CO (some centres undefined)	0 (no)
CCOC(=O)N1CCC(N2CCC[C@@H](NC(=O)c3ccccc3C)C2)CC1	0 (no)

Any idea what this test logged for C/C(=C\CCC(C)C1=CCC2(C)OC3=C(CC12)C(=O)C(O)CC3)CO (centres undefined) ?
0 (no)

Any idea what this test logged for O=C1C(c2[nH]c3ccc(S(=O)(=O)O)cc3c2O)=Nc2ccc(S(=O)(=O)O)cc21 ?
0 (no)

Any idea what this test logged for O=C(CCCN1CCC(n2c(=S)[nH]c3ccccc32)CC1)c1ccc(F)cc1 ?
1 (yes)

Any idea what this test logged for O=C(NCCCN1CCC2(CC1)OCc1ccccc12)[C@H]1CCCN1Cc1ccccc1 ?
0 (no)

Any idea what this test logged for CCC/C=C\C=C/CCc1cc(O)c([C@@H]2O[C@H](CO)[C@@H](O)[C@H](O)[C@H]2O)c(O)c1C(=O)OC ?
0 (no)
